# protocol.details: soluble on expression in E. coli; label from the status in PepcDB or PDB records

{"sequence.input": "MGSDKIHHHHHHMRRCPLCTSEETAPFYQDRKRCIYRCKRCMLLFADANSHLPPSAEVKRYRSANSKDKPLQQFLSSLITQCEQQVQGPLLGLNFGRLLNPQAIDAIKARGHQLNQYDPHFAPDHTLLRLEYDFICCYRVFEHFRFPGKEWQLLCSLLKPGGWMAISTQLLTELQGFPKWHHKNNLTHVSFYQQATFQYLASQAEFRLLFASKDLILVQKPTGSGITRDPSSLI", "soluble on expression in E. coli": "not soluble"}
{"sequence.input": "MGSDKIHHHHHHLELPLPPPGEDIVGQVHVIKAKYEDTFADIGTANDLGYLEMIAANPGVDPWLPGAGTEIILPTRFVLPPGPREGIVINLAEYRMYYFPKGESVVYTFPLGIGREGWGSPIANTRITAKTPNPTWTPPASIRKEHAEDGDILPTVVPAGPDNPLGPFKFTLGVPGYLIHGSNKKFGIGMRTSHGCFRMFNNNVLELSKMVPVGTPVRIINEPYKFGISAGKVYLEAHTPLDDQGNPSVVDKHTAVINALLKREDLANNLRMNWDMVRDVVAAEDGMPVEIAVPVENQGAAPMVTSIPPELQ", "soluble on expression in E. coli": "not soluble"}
